Test system: MCF7
Assay: NCI tumour cell line growth inhibition, 48 h
The source made the active and inactive calls. Cut-off read from the data, not from the text of the source: active = GI50 up to about 1.1 µM and inactive = higher.
Your response should consist of one outcome taken from 1 (yes) for active, 0 (no) for inactive

Examples with answers:
{"molecule": "CSc1ncc2c(n1)-c1ccccc1OC2N1CCCCC1 (stereo not drawn)", "label": "0 (no)"}
{"molecule": "Cc1cc(C)nc(NS(=O)(=O)c2ccc(NN=c3c4ccccc4n(C)c4ccccc34)cc2)n1", "label": "0 (no)"}
{"molecule": "COC(OC)C1OC(CO)C(n2cc(C)c(=O)[nH]c2=O)C1O (stereo not drawn)", "label": "0 (no)"}
{"molecule": "CCOC(=O)C1C2C1C1C(C(=O)OCC)C21 (stereo not drawn)", "label": "0 (no)"}
{"molecule": "Cc1cn(CC2=NCC(C)N2)c(=O)[nH]c1=O (stereo not drawn)", "label": "0 (no)"}
{"molecule": "O=C1c2cc(CCl)sc2C(=O)c2ccsc21", "label": "1 (yes)"}
{"molecule": "CCOC(=O)c1nc(SC)sc1NC(=O)c1ccc(OC)cc1", "label": "0 (no)"}
{"molecule": "COc1cc2nc(-c3ccc4ccccc4c3)nc(O)c2cc1OC", "label": "0 (no)"}
{"molecule": "O=C(O)c1ccc(Nc2nc3cc(C(F)(F)F)ccc3nc2C(=O)O)cc1", "label": "0 (no)"}
{"molecule": "CCc1n[nH]c(=O)n1/N=C/c1ccccc1O", "label": "0 (no)"}

(Q) Each molecule tested received a call. Report the one for `CC(=O)Nc1nc(Cl)cc(NCC2(CO)CCC2)n1` .
(A) 0 (no)

(Q) Each molecule tested received a call. Report the one for COC(=O)C1C(O)C(C(=O)OC)C(C)N(C)C1C (stereo not drawn) .
(A) 0 (no)

(Q) Each molecule tested received a call. Report the one for `CCS(=O)(=O)CCn1c(=O)c2c(ncn2C)n(C)c1=O` .
(A) 0 (no)

----------
// values below are reported GI50
Test system: SK-MEL-5
Assay: NCI tumour cell line growth inhibition, 48 h
Calls of active or inactive are those of the source. No stated cut-off is given here; in the data, active = GI50 up to about 1.1 µM and inactive = higher.

{"molecule": "COc1cc2c(cc1OC)C(Cc1ccc(Oc3cc(CC4c5cc(OC)c(OC)cc5CCN4C)ccc3O)cc1)N(C)CC2 (stereo not drawn)", "GI50": "15.7 µM (inactive)"}
{"molecule": "c1ccc2c(c1)nnn1c3cnccc3nc21", "GI50": "52.6 µM (inactive)"}
{"molecule": "COC(=O)CCCc1c(-c2[nH]c3ccccc3c2CCCC(=O)OC)[nH]c2ccccc12", "GI50": "> 100 µM (inactive)"}
{"molecule": "Cc1ncc([N+](=O)[O-])n1CCNS(=O)(=O)CCCn1ccnc1[N+](=O)[O-]", "GI50": "> 100 µM (inactive)"}
{"molecule": "O=C(N/C(=C\\c1ccc(/C=C(\\NC(=O)c2ccccc2)c2nc3cc([N+](=O)[O-])ccc3[nH]2)cc1)c1nc2cc([N+](=O)[O-])ccc2[nH]1)c1ccccc1", "GI50": "22.2 µM (inactive)"}

(Q) For the molecule shown here, NC(CNO)C(=O)O (stereo not drawn) , give the reported GI50.
(A) > 100 µM (inactive)

----------
Tested on: NCI-H522
Test: NCI tumour cell line growth inhibition, 48 h
Active and inactive are the calls of the source. No stated cut-off is given here; in the data, active = GI50 up to about 1.1 µM and inactive = higher.
Your response should consist of one outcome taken from 1.0 = active, 0.0 = inactive

Examples with answers:
{"compound": "CC(=O)Nc1c(C)ccc2c1C(=O)c1ccccc1C2=O", "label": 0.0}
{"compound": "Cc1nc2nnc(C)n2c2c1C(=O)Nc1ccccc1N2", "label": 0.0}
{"compound": "C/C(=N\\NC(=N)N)C(CN1CCOCC1)C(c1ccccc1)c1c(O)c2ccccc2oc1=O (centres undefined)", "label": 0.0}

Here is another compound to look at.
(Q) Each compound tested received a call. Report the one for `CC1=CC(=O)[C@@H](O)[C@]2(C)[C@H]3[C@@]4(O)OC[C@]35[C@H]([C@@H](C)[C@H]4O)[C@@H](O)C(=O)O[C@@H]5C[C@@H]12` .
(A) 1.0
